Measured values drawn from patent US7825134B2 for this set.

Test: Aqueous solubility at room temperature
Assay type: physicochemical
Settings: 0.9% sodium chloride, saline or isotonic, thermodynamic from solid, room temperature
recorded.endpoint: solubility (mg/mL)
Answer with a number only, understood to be in mg/mL.

Return solubility for the following compound: CC1(C)CC(OC(=O)C2CC2)CC(C)(C)N1O.Cl [Compound 1]
40.5

====

Experiment: Aqueous solubility at room temperature
Format: physicochemical
Details: 0.01 M acetate buffer, pH 4.8, aqueous buffer, thermodynamic from solid, 0.01 M Acetate buffer at pH 4.8, room temperature
recorded.endpoint: solubility
# number then unit; no other words

Return solubility for the following molecule: CC1(C)CC(OC(=O)C2CC2)CC(C)(C)N1O.Cl
68.6 mg/mL
